target: AgNbp2; test: SPOT peptide array binding signal intensity (averaged, normalized) (arbitrary units (background-subtracted, floor 0; scale differs between SH3 domains)); higher = stronger binding of the SH3 domain to the peptide
VALUE TYPE: SPOT peptide array binding signal intensity
Would you mind answering with just the numeric figure?

Example cases with answers are listed next.
# BINDER, MEASURED RESULT
records = [
    ("GSKSGPPPRPKKPST", 37),
    ("NTMKKRPAPPSLPSL", 384),
    ("SSSSSPPPLPTRRDH", 16),
]

Please examine the following record next.
**Query** Read off the recorded SPOT peptide array binding signal intensity for YRRKSIPFAPHQITA
**Result** 62.5

Origin of the recorded values: the supplement of paper PMC4466140
